Entry source: paper PMC2248166

// IC50 lookup, one value per entry
- test system: HLA B*1501 (Homo sapiens, UniProt P01889, A329T/A93T/A95T/C349S/D201E/D98Y/E187L/E204Q/E69M/E70A/K202T/N87E/Q94N/R155S/R180W/S121R/S35A/S48A/V306I/V36M/Y140S/Y91S)
- procedure text: biochemical
Where a SMILES comes first, the peptide text is derived from it.
All answers are understood in nM, so give the number only.

compound="CC[C@H](C)[C@H](NC(=O)[C@@H](N)CCC(=O)O)C(=O)N[C@@H](C)C(=O)N[C@@H](CCCCN)C(=O)N[C@@H](Cc1ccc(O)cc1)C(=O)NCC(=O)N[C@@H](Cc1c[nH]cn1)C(=O)N[C@@H](CO)C(=O)N[C@@H](Cc1ccccc1)C(=O)O [3102.0911] (H-EIAKYGHSF-OH)" quantitative_readout=58

// next entry
For reference, reported IC50 for CSCC[C@H](NC(=O)[C@H](Cc1ccc(O)cc1)NC(=O)[C@H](CO)NC(=O)[C@H](CCC(=O)O)NC(=O)[C@H](Cc1ccc(O)cc1)NC(=O)[C@H](CS)NC(=O)[C@H](Cc1c[nH]cn1)NC(=O)[C@H](CC(C)C)NC(=O)[C@@H](N)CCSC)C(=O)O [3102.0879] (H-MLHCYESYM-OH) stands at 97
